# measured-on: PHKG2 (human)
# protocol-summary: radiometric filter-binding kinase assay, Kinase HotSpot
# measurement-setup: compound 0.5 µM; ATP 10 µM
readout: residual activity (%)
Respond numerically; units are % and should not be typed.

Ask | For the compound Oc1cccc(-c2nc(N3CCOCC3)c3oc4ncccc4c3n2)c1 , what residual activity is on record?
Reply | 99.1

Ask | Need residual activity of CC(=O)c1ccc(N2CCOCC2)cc1O , thanks.
Reply | 98.1

Ask | Which residual activity is reported for this compound? COc1ccc2c(c[n+](C)c3c4cc5c(cc4ccc23)OCO5)c1OC
Reply | 94.8

Ask | What does the record list as residual activity for Cc1ccc(Nc2nccc(N(C)c3ccc4c(C)n(C)nc4c3)n2)cc1S(N)(=O)=O ?
Reply | 96.7

Ask | Report residual activity for CCN(CC)CCNC(=O)c1c(C)[nH]c(/C=C2\C(=O)Nc3ccc(F)cc32)c1C please.
Reply | 20.6

* * *

Reported residual activity values follow for various compounds
# measured-on: PHKG1 (human) (UniProt Q16816)
# Sequence (Q16816 whole entry, looked up): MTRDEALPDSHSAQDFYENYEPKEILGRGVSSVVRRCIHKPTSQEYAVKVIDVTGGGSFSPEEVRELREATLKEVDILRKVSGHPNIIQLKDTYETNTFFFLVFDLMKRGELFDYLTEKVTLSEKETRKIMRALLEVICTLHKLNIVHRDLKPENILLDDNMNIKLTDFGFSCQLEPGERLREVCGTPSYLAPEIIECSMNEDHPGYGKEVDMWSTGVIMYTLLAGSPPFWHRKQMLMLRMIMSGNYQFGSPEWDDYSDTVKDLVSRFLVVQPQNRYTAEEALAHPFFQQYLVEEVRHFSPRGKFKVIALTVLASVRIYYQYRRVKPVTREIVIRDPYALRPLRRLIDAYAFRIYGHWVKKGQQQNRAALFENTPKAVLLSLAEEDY
# protocol-summary: radiometric filter-binding kinase assay, Kinase HotSpot
# measurement-setup: compound 0.5 µM; ATP 10 µM
The response must be a number in % with no trailing unit.

As a guide, the following entries are already answered.
Ask | Which value of residual activity has been reported for CNC(=O)c1cc(Oc2ccc(NC(=O)Nc3ccc(Cl)c(C(F)(F)F)c3)cc2)ccn1 in the records?
Reply | 94.3

Ask | Query: residual activity; subject: COc1ccc2c(c[n+](C)c3c4cc5c(cc4ccc23)OCO5)c1OC
Reply | 90.4

Ask | Can you look up the measured residual activity of CNc1cc2c(Nc3cccc(Br)c3)ncnc2cn1 for me?
Reply | 91.4

Ask | Would you kindly share the measured residual activity for CCN(CC)CCNC(=O)c1c(C)[nH]c(/C=C2\C(=O)Nc3ccc(F)cc32)c1C ?
Reply | 5.12

---
Ask | Query: residual activity; subject: O=C1NC(=O)c2c1c1c3ccccc3n3c1c1c2c2ccccc2n1C1CCC3O1
Reply | 2.75

Ask | // query residual activity value for entry O=S(=O)(c1cccc2cnccc12)N1CCCNCC1
Reply | 90.8

Ask | Value lookup for residual activity; key = COc1cc2ncnc(Nc3cccc(Cl)c3)c2cc1OC
Reply | 88.9

Ask | # input compound: N#C/C(=C(/N)Sc1ccc(N)cc1)c1ccccc1C(F)(F)F ; wanted: its residual activity
Reply | 95.8

Ask | What residual activity value was documented for this compound, Nc1ccc2ncnc(NCCc3ccc(Oc4ccccc4)cc3)c2c1 ?
Reply | 96.4

Ask | # input compound: Oc1cccc(-c2nc(N3CCOCC3)c3oc4ncccc4c3n2)c1 ; wanted: its residual activity
Reply | 93.3

Ask | Look up residual activity for this compound: c1ccc(-c2n[nH]cc2-c2ccnc3ccccc23)nc1
Reply | 94.2

* * *

# measured-on: MAP2K2 (human) (UniProt P36507)
# Sequence (P36507 whole entry, looked up): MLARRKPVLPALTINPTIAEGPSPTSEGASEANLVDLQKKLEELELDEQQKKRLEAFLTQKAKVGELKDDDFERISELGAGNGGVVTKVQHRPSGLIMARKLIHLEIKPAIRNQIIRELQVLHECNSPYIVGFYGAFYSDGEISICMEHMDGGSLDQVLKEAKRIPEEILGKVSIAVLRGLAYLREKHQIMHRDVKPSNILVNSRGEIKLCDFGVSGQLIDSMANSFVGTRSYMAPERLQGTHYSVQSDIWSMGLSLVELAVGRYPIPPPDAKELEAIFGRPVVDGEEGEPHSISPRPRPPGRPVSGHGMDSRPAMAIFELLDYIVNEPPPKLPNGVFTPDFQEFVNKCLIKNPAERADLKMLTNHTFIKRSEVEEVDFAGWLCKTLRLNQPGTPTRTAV
# protocol-summary: radiometric filter-binding kinase assay, Kinase HotSpot
# measurement-setup: compound 0.5 µM; ATP 10 µM
Below: a set of entries, each annotated with reported residual activity.
Your answer should be a plain number; it is taken to be in %.

Previously resolved entries follow.
Ask | Name the recorded residual activity for CCN(CC)C(=O)c1ccc(Nc2nc(OCC3CCCCC3)c3nc[nH]c3n2)cc1 .
Reply | 94

Ask | Could you tell me which residual activity is on file for O=C1Nc2ccc(Cl)cc2/C1=C/c1cc(Cl)c(O)c(Cl)c1 ?
Reply | 82

Ask | Recorded residual activity of N#C/C(=C(/N)Sc1ccc(N)cc1)c1ccccc1C(F)(F)F , please.
Reply | 94.5

Ask | Param item = CCOC(=O)c1c(C)[nH]c(/C=C2\C(=O)Nc3ccccc32)c1C ; retrieve measured residual activity.
Reply | 102

Note: attention shifts to another entry.
Ask | Please look up its residual activity: Cc1[nH]c(/C=C2\C(=O)Nc3ccc(S(=O)(=O)N(C)c4cccc(Cl)c4)cc32)c(C)c1C(=O)N1CCN(C)CC1
Reply | 99.5

* * *

# measured-on: MAPK1 (human) (UniProt P28482)
# Sequence (P28482 whole entry, looked up): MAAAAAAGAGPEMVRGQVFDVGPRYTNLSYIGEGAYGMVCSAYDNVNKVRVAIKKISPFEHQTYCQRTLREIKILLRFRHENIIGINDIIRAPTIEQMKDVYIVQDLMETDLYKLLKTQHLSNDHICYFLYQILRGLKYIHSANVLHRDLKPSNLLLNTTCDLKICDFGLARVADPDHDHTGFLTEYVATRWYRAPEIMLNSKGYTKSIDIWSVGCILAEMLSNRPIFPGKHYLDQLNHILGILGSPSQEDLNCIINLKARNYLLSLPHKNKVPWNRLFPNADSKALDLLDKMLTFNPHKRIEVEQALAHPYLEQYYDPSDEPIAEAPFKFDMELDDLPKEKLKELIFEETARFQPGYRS
# protocol-summary: radiometric filter-binding kinase assay, Kinase HotSpot
# measurement-setup: compound 0.5 µM; ATP 10 µM
readout: residual activity (%)
Return type: number; implicit unit %.

Ask | May I ask what residual activity has been recorded for Nc1ncnc2[nH]nc(Nc3ccc(F)cc3)c12 ?
Reply | 80.8

---
Ask | // query residual activity value for entry CC(C)N(CCC(=O)c1ccc2ccccc2c1)Cc1ccccc1
Reply | 87.4

Ask | Quick one: residual activity of CC[n+]1c(/C=C/N(C)c2ccccc2)n(-c2ccccc2)c2ccc(-c3nc4ccccc4s3)cc21 ?
Reply | 112

Ask | Quick one: residual activity for c1ccc(-c2n[nH]cc2-c2ccnc3ccccc23)nc1 ?
Reply | 108

Ask | I would be grateful if you could share the reported residual activity for Oc1cccc(-c2nc(N3CCOCC3)c3oc4ncccc4c3n2)c1 .
Reply | 89

* * *

residual activity values, listed per item
# measured-on: CSNK1G2 (human) (UniProt P78368)
# Sequence (P78368 whole entry, looked up): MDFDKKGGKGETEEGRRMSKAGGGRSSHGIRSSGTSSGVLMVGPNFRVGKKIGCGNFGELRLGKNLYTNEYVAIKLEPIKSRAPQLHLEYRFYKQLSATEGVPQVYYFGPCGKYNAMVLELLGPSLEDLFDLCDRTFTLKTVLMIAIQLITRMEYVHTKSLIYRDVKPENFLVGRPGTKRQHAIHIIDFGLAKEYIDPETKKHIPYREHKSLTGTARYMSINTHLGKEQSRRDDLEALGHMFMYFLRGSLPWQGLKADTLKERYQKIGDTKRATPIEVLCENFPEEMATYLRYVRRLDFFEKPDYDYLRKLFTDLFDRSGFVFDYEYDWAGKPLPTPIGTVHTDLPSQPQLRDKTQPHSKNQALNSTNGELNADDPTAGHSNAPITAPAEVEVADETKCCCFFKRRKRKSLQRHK
# protocol-summary: radiometric filter-binding kinase assay, Kinase HotSpot
# measurement-setup: compound 0.5 µM; ATP 10 µM
All answers are understood in %, so give the number only.

Ask | Record Cc1[nH]c(/C=C2\C(=O)Nc3ccc(S(=O)(=O)N(C)c4cccc(Cl)c4)cc32)c(C)c1C(=O)N1CCN(C)CC1 : what is its residual activity with CSNK1G2 (human) (UniProt P78368)?
Reply | 99.7

Ask | Checklist item: residual activity tested on CSNK1G2 (human) (UniProt P78368), entry CNc1cc2c(Nc3cccc(Br)c3)ncnc2cn1 , value?
Reply | 95.8

Ask | Observed residual activity on CSNK1G2 (human) (UniProt P78368) for CO[C@H]1CC2CC[C@@H](C)[C@@](O)(O2)C(=O)C(=O)N2CCCC[C@H]2C(=O)OC([C@H](C)C[C@@H]2CC[C@@H](O)[C@H](OC)C2)CC(=O)[C@H](C)/C=C(\C)[C@@H](O)[C@@H](OC)C(=O)[C@H](C)C[C@H](C)/C=C/C=C/C=C/1C (stereo partly drawn) , please.
Reply | 94.8

* * *

Reported residual activity values for a set of compounds
# measured-on: PRKCE (human) (UniProt Q02156)
# Sequence (Q02156 whole entry, looked up): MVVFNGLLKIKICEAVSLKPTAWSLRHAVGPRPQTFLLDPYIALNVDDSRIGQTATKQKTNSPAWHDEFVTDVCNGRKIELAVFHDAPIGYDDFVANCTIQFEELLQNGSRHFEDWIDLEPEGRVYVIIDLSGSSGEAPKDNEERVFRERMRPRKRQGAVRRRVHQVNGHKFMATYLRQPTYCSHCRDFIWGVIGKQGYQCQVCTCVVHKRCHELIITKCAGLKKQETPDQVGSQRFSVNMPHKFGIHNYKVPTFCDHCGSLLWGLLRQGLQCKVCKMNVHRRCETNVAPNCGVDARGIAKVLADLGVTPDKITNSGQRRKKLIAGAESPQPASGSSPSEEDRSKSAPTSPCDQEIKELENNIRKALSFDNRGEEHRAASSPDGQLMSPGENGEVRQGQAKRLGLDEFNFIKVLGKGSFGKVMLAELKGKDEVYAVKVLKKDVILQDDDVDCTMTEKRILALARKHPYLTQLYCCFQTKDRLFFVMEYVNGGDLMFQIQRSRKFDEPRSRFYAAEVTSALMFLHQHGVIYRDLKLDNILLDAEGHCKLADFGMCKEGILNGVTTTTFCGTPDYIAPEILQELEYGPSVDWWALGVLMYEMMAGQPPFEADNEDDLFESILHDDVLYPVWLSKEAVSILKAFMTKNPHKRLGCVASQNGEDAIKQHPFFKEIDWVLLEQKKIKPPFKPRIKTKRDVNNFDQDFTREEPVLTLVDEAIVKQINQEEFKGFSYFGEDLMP
# protocol-summary: radiometric filter-binding kinase assay, Kinase HotSpot
# measurement-setup: compound 0.5 µM; ATP 10 µM
Expressed in %, but write only the number.

Here is how some compounds turned out for residual activity.
Ask | Query (compound): COc1cc2ncnc(Nc3cccc(Cl)c3)c2cc1OC ; field requested: residual activity
Reply | 97.8

Ask | Reported residual activity for O=C1NC(=O)c2c1c1c3ccccc3n3c1c1c2c2ccccc2n1C1CCC3O1 : what is it?
Reply | 28.4

Ask | Fill in the blank: the reported residual activity of CCC(=O)Nc1ccc2ncnc(Nc3cccc(Br)c3)c2c1 is ____.
Reply | 99.7

Ask | Query: residual activity; subject: c1ccc(-c2n[nH]cc2-c2ccnc3ccccc23)nc1
Reply | 101

Ask | Using the record for N#C/C(=C(/N)Sc1ccc(N)cc1)c1ccccc1C(F)(F)F , report its residual activity.
Reply | 104

Ask | Form field: reported residual activity of CCCC(=O)Oc1ccc2[nH]c(C(=O)c3cc4ccccc4[nH]3)cc2c1
Reply | 91

Others:
Ask | Endpoint output: residual activity of Nc1ncnc2c1c(-c1ccc(Oc3ccccc3)cc1)cn2C1CCCC1 . Value?
Reply | 96

Ask | So what's the measured residual activity for this one? CC[n+]1c(/C=C/N(C)c2ccccc2)n(-c2ccccc2)c2ccc(-c3nc4ccccc4s3)cc21
Reply | 97.7

* * *

# measured-on: TEK (human)
# protocol-summary: radiometric filter-binding kinase assay, Kinase HotSpot
# measurement-setup: compound 0.5 µM; ATP 10 µM
readout: residual activity (%)
Give just the numeric value; % need not be written.

Example entries begin here.
Ask | // returns reported residual activity for input Cc1ccc(S(=O)(=O)/C=C/C#N)cc1
Reply | 101

Ask | What residual activity value was documented for this compound, CCN(CC)CCNC(=O)c1c(C)[nH]c(/C=C2\C(=O)Nc3ccc(F)cc32)c1C ?
Reply | 88.6

Ask | Recorded residual activity for CNc1cc2c(Nc3cccc(Br)c3)ncnc2cn1 , please?
Reply | 87.9

New cases:
Ask | # query: residual activity of entry COc1cc2ncnc(Nc3cccc(Cl)c3)c2cc1OC
Reply | 88.6

Ask | Any idea what its residual activity is? The compound is Cc1ccc(Nc2nccc(N(C)c3ccc4c(C)n(C)nc4c3)n2)cc1S(N)(=O)=O
Reply | 69.3

Ask | Look up residual activity: O=C1NC(=O)/C(=C/c2ccc3c(c2)OC(F)(F)O3)S1
Reply | 91.9

* * *

# measured-on: LCK (human) (UniProt P06239)
# Sequence (P06239 whole entry, looked up): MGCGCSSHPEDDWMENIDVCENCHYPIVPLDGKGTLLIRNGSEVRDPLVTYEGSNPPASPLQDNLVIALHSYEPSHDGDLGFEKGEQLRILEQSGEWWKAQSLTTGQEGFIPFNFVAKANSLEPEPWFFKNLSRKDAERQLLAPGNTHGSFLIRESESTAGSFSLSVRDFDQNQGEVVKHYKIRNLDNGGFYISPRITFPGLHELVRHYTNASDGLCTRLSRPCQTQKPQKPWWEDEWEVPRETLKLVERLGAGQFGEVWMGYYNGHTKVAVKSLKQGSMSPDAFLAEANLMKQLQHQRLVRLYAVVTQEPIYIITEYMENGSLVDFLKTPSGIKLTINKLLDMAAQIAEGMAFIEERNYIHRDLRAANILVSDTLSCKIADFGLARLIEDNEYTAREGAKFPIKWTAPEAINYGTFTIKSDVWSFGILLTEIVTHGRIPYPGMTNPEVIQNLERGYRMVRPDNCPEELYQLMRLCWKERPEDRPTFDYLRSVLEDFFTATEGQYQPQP
# protocol-summary: radiometric filter-binding kinase assay, Kinase HotSpot
# measurement-setup: compound 0.5 µM; ATP 10 µM
readout: residual activity (%)
Return type: number; implicit unit %.

Some compounds with known residual activity results, for comparison:
Ask | Which residual activity value is on record for CC[n+]1c(/C=C/N(C)c2ccccc2)n(-c2ccccc2)c2ccc(-c3nc4ccccc4s3)cc21 ?
Reply | 89.9

Ask | Item under review: CC(C)N(CCC(=O)c1ccc2ccccc2c1)Cc1ccccc1 . Reported residual activity?
Reply | 98.9

Ask | Looking for the measured residual activity of COc1cc2ncnc(Nc3cccc(Cl)c3)c2cc1OC , can you help?
Reply | 74.9

Ask | I'd like to know its residual activity. The compound in question is Cc1ccc(S(=O)(=O)/C=C/C#N)cc1
Reply | 93.7

Ask | Requested field: residual activity. Item: N#C/C(=C(/N)Sc1ccc(N)cc1)c1ccccc1C(F)(F)F
Reply | 107

Ask | Recorded residual activity for N#CC(C#N)=C(N)/C(C#N)=C/c1ccc(O)cc1 , please?
Reply | 95.1

Kindly consider the entry below.
Ask | Would you mind telling me what residual activity value was observed for O=C1NC(=O)/C(=C/c2ccc3c(c2)OC(F)(F)O3)S1 ?
Reply | 98.3

Taken from the kinase profiling compilation of Christmann-Franck et al. (2016).
